I'd appreciate it if you could supply MIC values for the items below.
- System: Enterococcus sp. J 14365/08
- assay_procedure: Antibacterial microdilution broth, EF
- Assay type: cell-based
- condition: Enterococcus, SP.J14365/08, 48 h, read-out: MIC EF

Recorded MIC, per entry:
[[record]]
structure_smiles = "O=C(c1ccc(Cl)cc1)N(C(=O)c1ccc(Cl)cc1)c1cnccn1"
measured = "> 125 µM"

[[record]]
structure_smiles = "COc1ccccc1C(=O)Nc1cncc(Cl)n1"
measured = "> 500 µM"

[[record]]
structure_smiles = "O=C(Nc1cnccn1)c1ccc(Cl)cc1"
measured = "> 125 µM"

[[record]]
structure_smiles = "CC(=O)Oc1ccc(C(=O)Nc2cnc(Cl)cn2)cc1"
measured = "> 125 µM"

[[record]]
structure_smiles = "O=C(Nc1cnccn1)c1cccc(Cl)c1"
measured = "> 125 µM"


Query molecule follows.
q: Could you tell me which MIC is on file for O=C(Nc1cnc(Cl)cn1)c1ccccc1 ?
a: > 500 µM

###

- System: Lichtheimia corymbifera 272
- assay_procedure: Antifungal microdilution broth, LC
- Type: cell-based
- condition: Lichtheimia corymbifera, 272, 48 h, read-out: MIC LC
property_name: MIC

Recorded MIC, per entry:
[[record]]
compound = "Cc1ccc(C(=O)Nc2cnccn2)cc1 [Compound 1h]"
measured = "> 500 µM"

[[record]]
compound = "O=C(Nc1cnc(Cl)cn1)c1cccc(Cl)c1 [Compound 2k]"
measured = "> 125 µM"

[[record]]
compound = "COc1ccccc1C(=O)Nc1cncc(Cl)n1 [Compound 3e]"
measured = "> 500 µM"


Parameters: items (list). Returns: MIC for each item.
1. O=C(Nc1cnccn1)c1cccc(O)c1 [Compound 1c]
2. O=C(Nc1cnc(Cl)cn1)c1ccc(Cl)cc1 [Compound 2l]
3. CCc1ccc(C(=O)Nc2cnc(Cl)cn2)cc1 [Compound 2i]
4. CCc1ccc(C(=O)Nc2cnccn2)cc1 [Compound 1i]
5. O=C(Nc1cnccn1)c1cccc(C(F)(F)F)c1 [Compound 1n]
6. COc1ccc(C(=O)Nc2cnccn2)cc1 [Compound 1g]
7. O=C(Nc1cncc(Cl)n1)c1ccccc1Cl [Compound 3j]

a:
["> 500 µM", "> 125 µM", "> 125 µM", "> 500 µM", "> 125 µM", "> 500 µM", "> 500 µM"]

q: Could you tell me which MIC is on file for O=C(Nc1cnccn1)c1ccc(Cl)cc1 [Compound 1l] ?
a: > 125 µM

###

- System: Lichtheimia corymbifera 272
- assay_procedure: Antifungal microdilution broth, LC
- Format: cell-based
- condition: Lichtheimia corymbifera, 272, 48 h, read-out: MIC LC
I'd appreciate it if you could supply MIC values for the items below.

Recorded MIC, per entry:
[[record]]
structure_smiles = "COc1ccccc1C(=O)Nc1cnccn1"
measured = "> 500 µM"

[[record]]
structure_smiles = "CC(=O)Oc1ccc(C(=O)Nc2cnc(Cl)cn2)cc1"
measured = "> 125 µM"

[[record]]
structure_smiles = "O=C(Nc1cnc(Cl)cn1)c1ccc(Br)cc1"
measured = "> 125 µM"

[[record]]
structure_smiles = "O=C(Nc1cnc(Cl)cn1)c1ccccc1Cl"
measured = "> 500 µM"

[[record]]
structure_smiles = "CC(=O)Oc1ccccc1C(=O)Nc1cnc(Cl)cn1"
measured = "125 µM"

[[record]]
structure_smiles = "O=C(c1ccc(Cl)cc1)N(C(=O)c1ccc(Cl)cc1)c1cnccn1"
measured = "> 125 µM"


Parameters: items (list). Returns: MIC for each item.
1. COc1cccc(C(=O)Nc2cnc(Cl)cn2)c1
2. O=C(Nc1cnccn1)c1ccccc1O
3. O=C(Nc1cnc(Cl)cn1)c1cccc(O)c1

a:
> 500 µM
> 500 µM
> 500 µM
